Target: human TLR8 (Homo sapiens, UniProt Q9NR97)
Sequence (Q9NR97 27-1041): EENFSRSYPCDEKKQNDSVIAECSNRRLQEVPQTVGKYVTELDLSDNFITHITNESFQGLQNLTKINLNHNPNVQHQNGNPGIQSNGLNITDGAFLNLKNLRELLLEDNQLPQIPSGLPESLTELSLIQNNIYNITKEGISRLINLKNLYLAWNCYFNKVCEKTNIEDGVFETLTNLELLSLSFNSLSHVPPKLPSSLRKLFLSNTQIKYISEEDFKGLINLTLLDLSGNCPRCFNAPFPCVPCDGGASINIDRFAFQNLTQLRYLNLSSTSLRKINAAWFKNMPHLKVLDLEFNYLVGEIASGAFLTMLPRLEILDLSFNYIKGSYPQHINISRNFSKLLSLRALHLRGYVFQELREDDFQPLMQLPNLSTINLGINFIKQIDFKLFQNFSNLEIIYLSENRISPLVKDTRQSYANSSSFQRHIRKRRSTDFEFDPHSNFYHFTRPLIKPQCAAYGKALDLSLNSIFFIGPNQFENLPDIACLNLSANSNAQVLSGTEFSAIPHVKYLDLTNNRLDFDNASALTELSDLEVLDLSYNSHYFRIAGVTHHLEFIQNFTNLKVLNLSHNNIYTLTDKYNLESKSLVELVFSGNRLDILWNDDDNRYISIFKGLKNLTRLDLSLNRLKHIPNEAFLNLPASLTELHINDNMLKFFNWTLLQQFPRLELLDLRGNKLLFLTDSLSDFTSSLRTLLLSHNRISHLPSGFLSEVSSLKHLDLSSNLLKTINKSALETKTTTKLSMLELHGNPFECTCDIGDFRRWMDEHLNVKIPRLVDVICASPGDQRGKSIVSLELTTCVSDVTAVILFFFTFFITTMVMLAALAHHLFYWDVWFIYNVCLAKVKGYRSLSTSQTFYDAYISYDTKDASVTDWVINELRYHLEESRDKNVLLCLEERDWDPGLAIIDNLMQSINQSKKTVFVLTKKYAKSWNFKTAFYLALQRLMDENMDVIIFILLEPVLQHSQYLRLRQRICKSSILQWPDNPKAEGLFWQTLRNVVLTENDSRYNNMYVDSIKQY
Experiment: TLR8 inhibition reporter assay (HEK-Blue cells, SEAP reporter, R848 stimulation)
Details: HEK-Blue cells overexpressing human TLR8, SEAP reporter, R848 15.9 μM
pIC50: −log10 of the molar value.
# key: entry, value: pIC50

| molecule | measured target | pIC50 |
| --- | --- | --- |
| Cc1cc(-c2[nH]c3ccc(C4CCCCC4)cc3c2C(C)C)cc(C)n1 [Example 469] | human TLR8 (Homo sapiens, UniProt Q9NR97) | 5.51 |
| COc1cc(-c2[nH]c3ccc(C4CCC(NC(=O)CN5CC(CO)(CO)C5)CC4)cc3c2C(C)C)cn2ncnc12 (centres unmarked) [Example 134] | human TLR8 (Homo sapiens, UniProt Q9NR97) | 8.60 |
| Cc1cc(-c2[nH]c3ccc(C4CCC(N5CCOCC5)CC4)cc3c2C(C)C)cn2ncnc12 (centres unmarked) [Example 102] | human TLR8 (Homo sapiens, UniProt Q9NR97) | 9.15 |
| Cc1c(-c2[nH]c3ccc(C4CC(N)C4)cc3c2C(C)C)cn(C)c(=O)c1C (centres unmarked) [Example 493] | human TLR8 (Homo sapiens, UniProt Q9NR97) | 8.34 |
| COc1cc(-c2[nH]c3ccc(C4CCC(N5CCC5)CC4)cc3c2C(C)C)cn2ncnc12 (centres unmarked) [Example 77] | human TLR8 (Homo sapiens, UniProt Q9NR97) | 8.51 |
| Cc1cc(-c2[nH]c3ccc(C4CCN(C(=O)CN(C)C)C4)cc3c2C(C)C)cc(C)n1 (centres unmarked) [Example 591] | human TLR8 (Homo sapiens, UniProt Q9NR97) | 8.06 |
| Cc1c(-c2[nH]c3ccc(C4CN(C(=O)CN(C)C)C4)cc3c2C(C)C)cn2ncnc2c1C [Example 564] | human TLR8 (Homo sapiens, UniProt Q9NR97) | 8.15 |
| CC(C)c1c(-c2ccnc3[nH]ncc23)[nH]c2ccc(CN3CCN(C)CC3)cc12 [Example 442] | human TLR8 (Homo sapiens, UniProt Q9NR97) | 8.34 |

----------
Biological target: human TLR9 (Homo sapiens, UniProt Q9NR96)
Sequence (Q9NR96 26-1032): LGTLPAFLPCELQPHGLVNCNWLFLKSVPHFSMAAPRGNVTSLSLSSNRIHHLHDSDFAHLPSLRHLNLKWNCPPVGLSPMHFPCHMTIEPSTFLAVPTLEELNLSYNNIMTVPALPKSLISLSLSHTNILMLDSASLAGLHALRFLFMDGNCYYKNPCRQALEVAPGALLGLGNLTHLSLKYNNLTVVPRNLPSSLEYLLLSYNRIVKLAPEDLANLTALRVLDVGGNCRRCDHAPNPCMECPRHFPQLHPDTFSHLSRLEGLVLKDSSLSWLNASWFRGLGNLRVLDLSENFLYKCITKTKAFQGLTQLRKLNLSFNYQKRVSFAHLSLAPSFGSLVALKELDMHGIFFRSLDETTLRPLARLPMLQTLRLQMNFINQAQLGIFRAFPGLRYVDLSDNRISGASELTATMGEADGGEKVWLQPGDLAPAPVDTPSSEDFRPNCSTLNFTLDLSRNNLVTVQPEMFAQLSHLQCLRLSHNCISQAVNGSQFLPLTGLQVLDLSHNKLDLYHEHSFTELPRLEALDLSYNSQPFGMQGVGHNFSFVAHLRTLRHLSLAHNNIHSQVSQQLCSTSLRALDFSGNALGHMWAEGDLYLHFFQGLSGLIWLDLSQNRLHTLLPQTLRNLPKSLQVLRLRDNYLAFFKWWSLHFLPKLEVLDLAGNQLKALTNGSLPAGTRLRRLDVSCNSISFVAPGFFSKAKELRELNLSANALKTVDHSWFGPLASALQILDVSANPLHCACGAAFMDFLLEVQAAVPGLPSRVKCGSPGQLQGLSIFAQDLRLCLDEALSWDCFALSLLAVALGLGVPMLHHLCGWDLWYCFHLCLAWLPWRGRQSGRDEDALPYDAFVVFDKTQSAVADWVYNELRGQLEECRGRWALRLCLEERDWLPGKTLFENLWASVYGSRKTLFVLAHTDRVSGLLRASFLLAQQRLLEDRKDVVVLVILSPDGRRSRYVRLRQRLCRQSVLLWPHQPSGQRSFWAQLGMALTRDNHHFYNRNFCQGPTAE
Assay: TLR9 inhibition reporter assay (HEK-Blue cells, SEAP reporter, ODN2006 stimulation)
Settings: HEK-Blue cells overexpressing human TLR9, SEAP reporter, ODN2006 5 nM
pIC50: −log10 of the molar value.
# key: entry, value: pIC50

| molecule | censoring sign | pIC50 |
| --- | --- | --- |
| COc1cc(-c2[nH]c3ccc(C4CCC(N(C)CC(F)F)CC4)cc3c2C(C)C)cn2ncnc12 (stereo not drawn) [Example 74] | = | 4.61 |
| Cc1cc(-c2[nH]c3ccc(C4CCC(N5CCOCC5)CC4)cc3c2C(C)C)cc(C)n1 (stereo not drawn) [Example 55] | = | 6.32 |
| CC(C)c1c(-c2ccnc3[nH]ncc23)[nH]c2ccc(CN3CCN(C)CC3)cc12 [Example 442] | = | 5.12 |
| COc1cc(-c2[nH]c3ccc(C4CC(NC5COC5)C4)cc3c2C(C)C)cn2ncnc12 (stereo not drawn) [Example 579] | = | 5.13 |
| Cc1c(-c2[nH]c3ccc(C4CCCNC4)cc3c2C(C)C)ccc2ncnn12 (stereo not drawn) [Example 188] | = | 5.15 |
| Cc1cc(-c2[nH]c3ccc(C4CCCN(C(=O)C5(C)COC5)C4)cc3c2C(C)C)cc(C)n1 (stereo not drawn) [Example 203] | = | 4.36 |
| Cc1cc(-c2[nH]c3ccc(CCN4CCOCC4)cc3c2C(C)C)cc(C)n1 [Example 393] | = | 6.05 |
| CCc1c(-c2ccnc(C)c2)[nH]c2ccc(CNC(=O)N3CCN(C)CC3)cc12 [Example 448] | = | 5.90 |
| Cc1cc(-c2[nH]c3ccc(CCN4CCCCC4)cc3c2C(C)C)cn(C)c1=O [Example 409] | = | 4.81 |
| COCCC(=O)N1CCCC(c2ccc3[nH]c(-c4cc(C)nc(C)c4)c(C(C)C)c3c2)C1 (stereo not drawn) [Example 208] | < | 4.30 |
| Cc1c(-c2[nH]c3ccc(C4CC(NC(=O)CN(C)C)C4)cc3c2C(C)C)cn2ncnc2c1C (stereo not drawn) [Example 578] | = | 5.19 |
| COc1cc(-c2[nH]c3ccc(C4CCC(N5CC[C@H](N(C)C)C5)CC4)cc3c2C(C)C)cn2ncnc12 (stereo partly drawn) [Example 33] | = | 6.31 |
| CNCC(=O)N1CCCC(c2ccc3[nH]c(-c4cc(OC)c5ncnn5c4)c(C(C)C)c3c2)C1 (stereo not drawn) [Example 211] | = | 5.10 |
| Cc1cc(-c2[nH]c3ccc([C@H]4C[C@H]4C(=O)NC4CCC5CNCC54)cc3c2C(C)C)ccn1 (stereo partly drawn) [Example 453] | = | 6.72 |
| COc1cc(-c2[nH]c3ccc(C4CN(C5COC5)C4)cc3c2C(C)C)cn2ncnc12 [Example 274] | = | 5.41 |
| CNCC(=O)N1CCOC(c2ccc3[nH]c(-c4cn5ncnc5c(C)c4C)c(C(C)C)c3c2)C1 (stereo not drawn) [Example 340] | = | 5.32 |
| Cc1cc(-c2[nH]c3ccc(C4CN(CC(=O)N(C)C)C4)cc3c2C(C)C)cn2ncnc12 [Example 261] | = | 5.48 |
| CNC(=O)CNC1CCC(c2ccc3[nH]c(-c4cc(OC)c5ncnn5c4)c(C(C)C)c3c2)CC1 (stereo not drawn) [Example 167] | = | 5.89 |
| Cc1cc(-c2[nH]c3ccc(C4CN(C5COC5)CCO4)cc3c2C(C)C)cn2ncnc12 (stereo not drawn) [Example 289] | < | 4.30 |
| Cc1cc(-c2[nH]c3ccc(CCN4CCOCC4)cc3c2C(C)C)cn(C)c1=O [Example 403] | = | 4.64 |
| COc1cc(-c2[nH]c3ccc(C4CCC(NCC(F)(F)F)CC4)cc3c2C(C)C)cn2ncnc12 (single isomer, unassigned) [Example 108] | = | 4.70 |
| Cc1c(-c2[nH]c3ccc(C4CCC(NC5COC5)CC4)cc3c2C(C)C)cn2ncnc2c1C (single isomer, unassigned) [Example 86] | = | 5.28 |
| Cc1c(-c2[nH]c3ccc(C4CCCN(CC(=O)N(C)C)C4)cc3c2C(C)C)cn2ncnc2c1C (stereo not drawn) [Example 226] | = | 5.01 |
| COc1cc(-c2[nH]c3ccc(C4CCC(NC(=O)CN5CCOCC5)CC4)cc3c2C(C)C)cn2ncnc12 (stereo not drawn) [Example 141] | = | 5.36 |
| COCCN1CCN(C2CCC(c3ccc4[nH]c(-c5cc(OC)c6ncnn6c5)c(C(C)C)c4c3)CC2)CC1 (single isomer, unassigned) [Example 38] | = | 5.68 |
| Cc1c(-c2[nH]c3ccc(C4CC(N(C)CCS(C)(=O)=O)C4)cc3c2C(C)C)cn2ncnc2c1C (stereo not drawn) [Example 582] | = | 4.45 |
| Cc1c(-c2[nH]c3ccc(C4CN(CCS(C)(=O)=O)C4)cc3c2C(C)C)cn2cnnc2c1C [Example 532] | = | 4.77 |
| Cc1c(-c2[nH]c3ccc(CC4CCCN4C4CCOCC4)cc3c2C(C)C)cn2cnnc2c1C (stereo not drawn) [Example 429] | = | 5.17 |
| COc1cc(-c2[nH]c3ccc(CC4CN(CC#N)C4)cc3c2C(C)C)cn2ncnc12 [Example 432] | = | 5.27 |
| COc1cc(-c2[nH]c3ccc(C4CCC(NC(=O)CN5CCCC5)CC4)cc3c2C(C)C)cn2ncnc12 (stereo not drawn) [Example 133] | = | 5.69 |

----------
Target: human TLR7 (Homo sapiens, UniProt Q9NYK1)
Sequence (Q9NYK1 27-1049): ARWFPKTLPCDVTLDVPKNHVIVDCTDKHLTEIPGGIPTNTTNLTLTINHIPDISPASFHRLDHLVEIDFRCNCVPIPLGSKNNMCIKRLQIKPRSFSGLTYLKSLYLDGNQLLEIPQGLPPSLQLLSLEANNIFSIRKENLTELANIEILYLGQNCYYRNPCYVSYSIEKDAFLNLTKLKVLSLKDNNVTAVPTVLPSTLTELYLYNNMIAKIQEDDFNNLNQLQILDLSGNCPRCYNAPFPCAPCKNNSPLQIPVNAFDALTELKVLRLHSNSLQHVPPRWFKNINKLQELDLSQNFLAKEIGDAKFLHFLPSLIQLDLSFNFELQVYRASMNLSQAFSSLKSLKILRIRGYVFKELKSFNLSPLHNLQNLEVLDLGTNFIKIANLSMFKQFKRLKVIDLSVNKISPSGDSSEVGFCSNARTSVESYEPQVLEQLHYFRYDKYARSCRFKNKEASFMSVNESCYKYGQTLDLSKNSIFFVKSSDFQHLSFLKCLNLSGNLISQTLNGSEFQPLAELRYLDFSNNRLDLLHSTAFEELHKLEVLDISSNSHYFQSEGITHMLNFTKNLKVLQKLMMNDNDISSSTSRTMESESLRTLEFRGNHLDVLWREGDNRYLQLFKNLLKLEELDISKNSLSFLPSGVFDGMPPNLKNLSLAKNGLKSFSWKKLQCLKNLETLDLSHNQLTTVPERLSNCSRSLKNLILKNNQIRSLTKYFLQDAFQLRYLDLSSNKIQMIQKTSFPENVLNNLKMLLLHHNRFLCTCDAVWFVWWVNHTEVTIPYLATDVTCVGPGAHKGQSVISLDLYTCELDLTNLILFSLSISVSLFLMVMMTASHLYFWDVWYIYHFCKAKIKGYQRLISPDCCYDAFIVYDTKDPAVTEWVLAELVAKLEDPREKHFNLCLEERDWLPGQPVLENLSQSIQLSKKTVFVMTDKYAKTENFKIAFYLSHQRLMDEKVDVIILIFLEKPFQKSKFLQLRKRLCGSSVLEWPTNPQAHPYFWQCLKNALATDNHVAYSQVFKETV
Experiment: TLR7 inhibition reporter assay (HEK-Blue cells, SEAP reporter, gardiquimod stimulation)
Conditions: HEK-Blue cells overexpressing human TLR7, SEAP reporter, gardiquimod 7.5 μM
Values of IC50 strictly less than 100 nM map to 1 (yes), and values of at least 100 nM map to 0 (no).

| compound | cat |
| --- | --- |
| CCc1c(-c2ccc(OC)c(OC)c2)[nH]c2ccc(CN3CCNCC3)cc12 [Example 390] | 0 (no) |
| COc1cc(-c2[nH]c3ccc(C4CCCN(C)C4)cc3c2C(C)C)cn2ncnc12 (centres unmarked) [Example 238] | 1 (yes) |
| Cc1cc(-c2[nH]c3ccc(C4CCCN(C5CCN(C(C)C)CC5)C4)cc3c2C(C)C)cc(C)n1 (centres unmarked) [Example 245] | 0 (no) |
| COc1cc(-c2[nH]c3ccc(CC4CN(C(=O)CN(C)C)C4)cc3c2C(C)C)cn2ncnc12 [Example 434] | 1 (yes) |
| Cc1c(-c2[nH]c3ccc(C4CCC(NC(=O)CN(C)C)CC4)cc3c2C(C)C)cn2ncnc2c1C (centres unmarked) [Example 124] | 1 (yes) |
| Cc1c(-c2[nH]c3ccc(C4CCCNC4)cc3c2C(C)C)cn2ncnc2c1C (centres unmarked) [Example 190] | 1 (yes) |
| CCc1c(-c2ccnc(C)c2)[nH]c2ccc(CC3CCCN3)cc12 (centres unmarked) [Example 420] | 0 (no) |
| COc1cc(-c2[nH]c3ccc(C4CN(CCS(C)(=O)=O)C4)cc3c2C(C)C)cn2ncnc12 [Example 265] | 1 (yes) |
